Reference source: ChEMBL document CHEMBL1909046

Target: UniProt P22303
Sequence (P22303 whole entry): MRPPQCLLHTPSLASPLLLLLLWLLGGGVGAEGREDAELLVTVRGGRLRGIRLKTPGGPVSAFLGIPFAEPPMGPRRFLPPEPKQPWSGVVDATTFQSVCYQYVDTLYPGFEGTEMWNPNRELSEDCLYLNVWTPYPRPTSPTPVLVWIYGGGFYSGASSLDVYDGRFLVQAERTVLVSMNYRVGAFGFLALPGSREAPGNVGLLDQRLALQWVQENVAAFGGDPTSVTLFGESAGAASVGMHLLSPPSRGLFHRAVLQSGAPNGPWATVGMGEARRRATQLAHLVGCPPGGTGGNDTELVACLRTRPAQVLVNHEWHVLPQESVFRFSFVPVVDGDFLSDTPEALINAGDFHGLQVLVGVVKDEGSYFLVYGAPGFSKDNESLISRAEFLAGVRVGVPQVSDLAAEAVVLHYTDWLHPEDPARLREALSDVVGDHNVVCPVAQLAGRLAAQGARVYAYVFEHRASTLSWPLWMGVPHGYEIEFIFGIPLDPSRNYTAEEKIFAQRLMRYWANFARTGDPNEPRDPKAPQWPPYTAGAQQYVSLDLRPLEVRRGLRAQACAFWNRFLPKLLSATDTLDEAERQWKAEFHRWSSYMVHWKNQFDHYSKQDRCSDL
Experiment: DRUGMATRIX: Acetylcholinesterase enzyme inhibition (substrate: acetylthiocholine)
Assay type: cell-based, HEK293
Settings: Not Active = under 50% inhibition at 10 µM; read-out: IC50
experimental.endpoint: IC50 (µM)
One number for each entry, in µM.

Reported IC50 ( c1ccc2c(c1)cc1ccc3cccc4ccc2c1c34 ) = 28

Turning now to a further record.
Reported IC50 ( Clc1ccccc1C(c1ccccc1)(c1ccccc1)n1ccnc1 ) = 19.4

====

Molecular target: Mu-type opioid receptor (Homo sapiens)
Sequence (P35372 whole entry): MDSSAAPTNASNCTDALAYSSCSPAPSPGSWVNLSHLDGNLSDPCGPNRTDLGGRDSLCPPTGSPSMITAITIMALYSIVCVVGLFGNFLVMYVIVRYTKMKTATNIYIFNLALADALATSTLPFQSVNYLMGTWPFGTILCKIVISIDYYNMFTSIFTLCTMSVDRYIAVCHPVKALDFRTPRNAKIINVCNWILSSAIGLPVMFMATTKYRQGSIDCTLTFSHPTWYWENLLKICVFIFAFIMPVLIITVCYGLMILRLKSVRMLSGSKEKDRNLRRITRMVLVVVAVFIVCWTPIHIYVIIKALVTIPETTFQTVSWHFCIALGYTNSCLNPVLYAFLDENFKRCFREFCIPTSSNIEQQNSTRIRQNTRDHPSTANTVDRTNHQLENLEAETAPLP
Assay: DRUGMATRIX: Opiate mu (OP3, MOP) radioligand binding (ligand: [3H] Diprenorphine)
Assay type: cell membranes, CHO-K1, Membrane
Conditions: cho-k1; Not Active = under 50% inhibition at 10 µM
experimental.endpoint: IC50

Reported IC50 ( NC(=O)c1ncn([C@@H]2O[C@H](CO)[C@@H](O)[C@H]2O)n1 [RIBAVIRIN] ) = Not Active

Reported IC50 ( CC(CCc1ccccc1)NCC(O)c1ccc(O)c(C(N)=O)c1 (stereo not drawn) [LABETALOL] ) = Not Active

Reported IC50 ( Cc1ccccc1N1CCN(CCc2nnc3n2CCCC3)CC1 [DAPIPRAZOLE] ) = Not Active

Reported IC50 ( CN(C)[C@@H]1C(O)=C(C(N)=O)C(=O)[C@@]2(O)C(O)=C3C(=O)c4c(O)cccc4[C@@](C)(O)[C@H]3[C@H](O)[C@@H]12 [OXYTETRACYCLINE] ) = Not Active

Reported IC50 ( C=C1CC[C@H](O)C/C1=C/C=C1\CCC[C@]2(C)[C@@H]([C@H](C)/C=C/[C@H](C)C(C)C)CC[C@@H]12 [ERGOCALCIFEROL] ) = Not Active

Reported IC50 ( CC1CN(c2cc3c(cc2F)c(=O)c(C(=O)O)cn3-c2ccc(F)cc2F)CCN1 (stereo not drawn) [TEMAFLOXACIN] ) = Not Active

// each molecule listed below needs its IC50
1. CN1[C@@H]2CC[C@H]1C[C@@H](OC(=O)c1c[nH]c3ccccc13)C2 [TROPISETRON]
2. CC(C)(S)[C@@H](N)C(=O)O [PENICILLAMINE]

Not Active
Not Active
